Recorded GFP response relative to DMSO for the following compounds
- protocol: LAP4-GFP expression modulators in yeast, confirmation, cell-based, cherry picks, flow cytometry, mother/daughter gates (AID 2271);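 note: ratio of sample to DMSO plate mean so 100% equals DMSO level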
- recorded_conditions: S. cerevisiae LAP4-GFP strain, 3 h, measured here: mother cell gate response, at 10 µM, stronger effect = higher value, 100 means same as DMSO control
Give just the numeric value; % need not be written.

Would you please look over these solved cases?
1) CCOc1ccc(/C=C2\N=C(c3cccs3)OC2=O)cc1OC = 99.4
2) Cc1nnc(NC(=O)c2nc(S(=O)(=O)Cc3ccccc3C)ncc2Cl)s1 = 97.4
3) COc1ccc(C(=O)Nc2c(N)nc[nH]c2=O)cc1 = 97.3
4) O=[N+]([O-])c1ccc(N2N=C(c3ccco3)CC2c2ccccc2)cc1 (stereo unspecified) = 108
5) O=C(c1ccc2c(c1)OCO2)N1CCN(c2ccc(F)cc2)CC1 = 91.1
6) COc1ccc(Br)cc1/C=C/C(=O)c1ccc(NC(C)=O)cc1 = 92.3

Shift focus to the following entry.
# return recorded GFP response relative to DMSO for entry CCCc1[nH]nc2c1C1(C(=O)N(C(C)C)c3ccccc31)C(C#N)=C(N)O2 (stereo unspecified)
96.4
